Where these numbers come from: patent US20200207857A1

Target: Recombinant protein Claudin 18.2
Sequence (chain, as listed by the source limits assumed, form in doubt): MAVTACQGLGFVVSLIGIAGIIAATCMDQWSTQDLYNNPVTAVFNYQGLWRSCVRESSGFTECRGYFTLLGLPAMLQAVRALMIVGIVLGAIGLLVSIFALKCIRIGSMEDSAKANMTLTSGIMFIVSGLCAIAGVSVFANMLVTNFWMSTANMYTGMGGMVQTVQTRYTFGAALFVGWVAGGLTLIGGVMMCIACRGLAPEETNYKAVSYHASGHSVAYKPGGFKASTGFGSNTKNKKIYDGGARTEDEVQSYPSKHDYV
Assay: ELISA-based assay on Claudin 18.2, y axis RLU; Kd table under the graph, no unit in the table, unit from the x axis log[antibody] nM
For each of the binders below, state its pKd.
Give bare numbers, as −log10 of the molar value.

{"binder": "h5C9oab (antibody, V domains shown) VH: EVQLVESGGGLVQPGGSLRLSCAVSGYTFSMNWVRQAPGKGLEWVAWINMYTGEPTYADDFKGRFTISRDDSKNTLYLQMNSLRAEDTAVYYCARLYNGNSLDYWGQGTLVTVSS VL: DIQMTQSPSSLSASVGDRVTITCKSSQSLLNSGNQKSYLTWYQQKPGKAPKLLIYWASTLESGVPSRFSGSGSGTDYTLTISSLQPEDFATYYCQNAYYFPFTFGQGTKVEIK", "property": "pKd", "val": 9.78}

// next item, pKd requested
Query :: Which pKd reading was recorded for the binder h5C9oal (antibody, human IgG1, kappa, V domains shown) VH: EVQLVESGGGLVQPGGSLRLSCAVSGYTFSMNWVRQAPGKGLEWVAWINMYTGEPTYADDFKGRFTISRDDSKNTLYLQMNSLRAEDTAVYYCARLARGNSMDYWGQGTLVTVSS VL: DIQMTQSPSSLSASVGDRVTITCKSSQSLLNSGNQKSYLTWYQQKPGKAPKLLIYWASTLESGVPSRFSGSGSGTDYTLTISSLQPEDFATYYCQNAYYFPFTFGQGTKVEIKR ?
Result :: 9.70
